tested on: ISC-enriched organoids; assay: Primary screen, 384-well 2.5-D organoid differentiation (ENR+CD, 6 days): carbachol-induced lysozyme secretion (LYZ.S); format: cell-based, murine; conditions: dose 2.00 uM; vs plate median
Measured attribute: Dose.FC.LYZ.S (log 2 fold change, carbachol-induced lysozyme secretion)

| Compound | Measured |
| --- | --- |
| CS(=O)(=O)c1ccc(-c2cnc(N)c(C(=O)Nc3ccccc3)n2)cc1 | −0.004 |
| COc1cc2/c(=N/c3ccc(Br)cc3F)nc[nH]c2cc1OCC1CCN(C)CC1 [Vandetanib (ZD6474)] | −0.384 |
| Cl.Cl.Cl.O[C@@H](COc1cccc2ncccc12)CN1CCN([C@@H]2c3ccccc3[C@@H]3[C@H](c4ccccc42)C3(F)F)CC1 [Zosuquidar (LY335979) 3HCl] | 0.129 |
| Nc1cccc(-c2cc3c(Oc4cccc(O)c4)ncnc3[nH]2)c1 | 0.044 |
| N#C[C@@H]1CCCN1C(=O)CNC12CC3CC(CC(O)(C3)C1)C2 | 0.038 |
| NC(=O)Nc1sc(-c2ccc(F)cc2)cc1C(N)=O | −0.054 |
| Nc1nc(N)c2nc(-c3cccc(O)c3)c(-c3cccc(O)c3)nc2n1 | −0.019 |
| C[C@H](NC(=O)Cc1cc(F)cc(F)c1)C(=O)N[C@@H]1C(=O)N(C)c2ccccc2-c2ccccc21 | −0.020 |
| CCC(=O)Nc1cccc(Oc2nc(Nc3ccc(N4CCN(C)CC4)cc3OC)ncc2Cl)c1 | −0.035 |
| O=C(O[C@H]1C[C@H]2CC[C@@H](C1)[N+]21CCCC1)C(O)(c1ccccc1)c1ccccc1 [Trospium chloride] | −0.008 |
